pIC50: −log10 of the molar value.
Header: pIC50 / Dihydroorotate dehydrogenase (quinone), mitochondrial (Homo sapiens) / multiple publications
REPORTED PROPERTY: pIC50

Some solved entries appear below for comparison.
COMPOUND: Cc1cc(C(=O)O)c2[nH]c(-c3ccc(-c4ccccc4F)cc3)nc2c1
REPORTED PROPERTY: pIC50
VAL: 6.43
--
COMPOUND: CCn1c(CO)nn(-c2ccc3c(c2)C(C(C)C)CN(c2ccccc2F)C3=O)c1=O (racemic)
REPORTED PROPERTY: pIC50
VAL: 6.85
--
COMPOUND: Cc1ccccc1-c1ncc(Nc2ccc(C3CC3)cc2C(=O)O)cn1
REPORTED PROPERTY: pIC50
VAL: 7.92
--
COMPOUND: Cc1ccc(Nc2cnc(-c3ccccc3)c(F)c2)c(C(=O)O)c1
REPORTED PROPERTY: pIC50
VAL: 7.74

a: C=C(c1cn(-c2ccccc2C)c(=O)c2cc(F)c(-n3nc(CO)n(CC)c3=O)cc12)C(F)(F)F
b: Cc1cc(C(=O)O)c2[nH]c(-c3c(F)c(F)c(-c4cccc(OCc5ccccc5)c4)c(F)c3F)nc2c1
// select label with min value of measured pIC50 from [ a , b ] Select an item and report its label. b

###

Here, molecules appear alongside IC50 reported for Dihydroorotate dehydrogenase (quinone), mitochondrial (Homo sapiens) in the literature.
REPORTED PROPERTY: IC50 (nM)

P: Cc1n[nH]c(Cl)c1-c1cc(C(C)C)c2cc(-c3cn(C)c(CO)n3)c(F)cc2n1
Q: COc1cccc(-c2cc(F)c(Nc3ncccc3C(=O)O)cc2F)c1
Name the one with the greater IC50 value, either P or Q as given. Refer to your chosen entry by its label in the reply. Q

A: CCn1c(CO)nn(-c2nc(O[C@@H](C)C(F)(F)F)c(/C(F)=C/c3ncccc3Cl)cc2F)c1=O
B: CONC(=O)c1cc(C)cc2nc(-c3c(F)c(F)c(-c4ccccc4)c(F)c3F)[nH]c12
C: CCn1c(CO)nn(-c2cc3c(C(C)C)cc(-c4c[nH]nc4C4CC4)nc3cc2F)c1=O
Highest IC50 first, then in falling order down to the smallest. Answer format: the labels, ordered as requested. B, C, A

I: C=C(C)c1cn(-c2c(F)cccc2Cl)c(=O)c2ccc(-n3nc(CO)n(CC)c3=O)cc12
II: Cc1ccc(C)n1-c1c(F)c(F)c(-c2nc3cccc(C(=O)O)c3[nH]2)c(F)c1F
III: C=C(C)c1cn(-c2c(C)ccnc2OC)c(=O)c2cc(F)c(-n3nc(CO)n(CC)c3=O)cc12
IV: CCn1c(CO)nn(-c2cc3c(C(C)C)cc(-c4c(C)cnc(O)c4C)nc3cc2F)c1=O
Please produce an ascending ranking of these molecules based on IC50. Answer by naming the labels in the order asked. I, III, IV, II
(I: 1.29 nM, III: 2.23 nM, IV: 12 nM, II: 110 nM)

a: Cc1cc(C(=O)O)c2[nH]c(-c3ccc(-c4ccc(F)cc4F)cc3F)nc2c1
b: CCn1c(CO)nn(-c2cc3c(cc2F)C(=O)N(c2c(C)cnc(OC)c2Cl)CC3C(C)C)c1=O (single isomer, unassigned)
Could you check which of a and b has a smaller value for IC50? Identify your selection by its label. b
(b: 2 nM, a: 1010 nM)
